# tested_target: Bromodomain-containing protein 4 (Homo sapiens)
# protocol_details: Binding affinity to recombinant human N-terminal His6-tagged BRD4 bromodomain 1 (44 to 168 residues) expressed in Escherichia coli BL21(DE3) assessed as change in melting temperature at 10 uM by differential scanning fluorimetry
# deltaTm per record follows

Answered cases to consult:
molecule	measured_property	value
COCCOc1ccccc1CNc1ccc2c(c1)n(C)c(=O)n2C	deltaTm	> 0.5 K
Cc1cc2cc(N)ccc2[nH]1	deltaTm	> 0.5 K
Cn1cc(NC(=O)c2occc2COc2ccccc2)ccc1=O	deltaTm	> 0.5 K
Cn1c(=O)n(C)c2cc(N)ccc21	deltaTm	> 0.5 K
CC1Oc2ccc(N)cc2NC1=O (configuration not stated)	deltaTm	> 0.5 K
COc1ccc(OC)c(CCC(=O)Nc2ccc3c(c2)n(C)c(=O)n3C)c1	deltaTm	> 0.5 K
Cc1nc2ccc(C(=O)O)cc2o1	deltaTm	> 0.5 K
Cn1c(=O)n(C)c2cc(NC(=O)c3cc4c(s3)CCC4)ccc21	deltaTm	> 0.5 K

Fill in reported deltaTm for this entry: Cc1ccc(C(=O)Nc2ccc3nc(N4CCCC4)sc3c2)cc1[N+](=O)[O-]
> 0.5 K

Fill in reported deltaTm for this entry: CC1CCCC(C)N1C(=O)CSc1nc2sc3c(c2c(=O)n1C)CCCC3 (configuration not stated)
> 0.5 K

Fill in reported deltaTm for this entry: CC1(C)C(=O)Nc2cc(C(=O)O)ccc21
> 0.5 K

Fill in reported deltaTm for this entry: Cc1cc2cc(NC(=O)c3sc4nc(C(F)(F)F)ccc4c3C)ccc2[nH]1
> 0.5 K

Fill in reported deltaTm for this entry: Nc1ccc2nc(N3CCCC3)sc2c1
> 0.5 K

Fill in reported deltaTm for this entry: Cc1nc(-c2cccc(N)c2)cs1
> 0.5 K

Fill in reported deltaTm for this entry: O=C1C(=O)N(CCCOc2ccccc2)c2ccc(Cl)cc21
> 0.5 K

Fill in reported deltaTm for this entry: Cc1cc2cc(NC(=O)c3ccc(Oc4ccc(C(F)(F)F)cn4)cc3)ccc2[nH]1
> 0.5 K

Fill in reported deltaTm for this entry: Cc1nc(-c2cccc(NC(=O)c3ccc4[nH]c(C)c(C)c4c3)c2)cs1
> 0.5 K
